Recorded values, source paper PMC11425824.

Biological target: CDK1 (Homo sapiens)
Sequence (P20248 whole entry): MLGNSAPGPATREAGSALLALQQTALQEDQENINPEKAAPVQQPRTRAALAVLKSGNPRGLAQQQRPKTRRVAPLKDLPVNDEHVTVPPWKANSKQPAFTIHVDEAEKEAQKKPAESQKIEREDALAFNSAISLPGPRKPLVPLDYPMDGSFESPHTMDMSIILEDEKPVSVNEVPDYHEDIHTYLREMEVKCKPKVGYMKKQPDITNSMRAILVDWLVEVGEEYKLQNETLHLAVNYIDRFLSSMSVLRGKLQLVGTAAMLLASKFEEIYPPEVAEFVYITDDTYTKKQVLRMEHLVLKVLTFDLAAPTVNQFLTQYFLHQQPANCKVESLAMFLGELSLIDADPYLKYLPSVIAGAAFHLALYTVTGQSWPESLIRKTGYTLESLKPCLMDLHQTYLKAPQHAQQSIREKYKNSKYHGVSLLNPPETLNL
Sequence (P06493 whole entry): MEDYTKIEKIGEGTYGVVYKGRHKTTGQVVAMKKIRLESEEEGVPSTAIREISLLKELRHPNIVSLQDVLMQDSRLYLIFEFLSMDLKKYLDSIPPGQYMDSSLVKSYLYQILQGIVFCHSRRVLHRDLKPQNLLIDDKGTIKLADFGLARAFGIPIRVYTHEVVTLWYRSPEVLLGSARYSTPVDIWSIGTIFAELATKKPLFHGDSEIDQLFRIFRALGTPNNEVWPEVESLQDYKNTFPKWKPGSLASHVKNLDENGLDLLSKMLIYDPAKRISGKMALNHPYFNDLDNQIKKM
Below: a set of entries, each annotated with reported IC50.
State just the number; it will be interpreted in µM.

INPUT: Would you mind telling me what IC50 value was observed for `Cc1cc2cc(Oc3ccnc(Nc4cccc(CS(=O)(=O)NCCN(C)C)c4)n3)ccc2[nH]1` ?
OUTPUT: 5.94

INPUT: Note, next up: `CCO[C@@H](Cc1ccc(OCCc2ccc(OS(C)(=O)=O)cc2)cc1)C(=O)O`
OUTPUT: 4.37

Now let's try a different one.
INPUT: Would you mind telling me what IC50 value was observed for CC(C)OC(=O)[C@H](C)N[P@](=O)(CO[C@H](C)Cn1cnc2c(N)ncnc21)Oc1ccccc1 [DB_1, tenofovir alafenamide] ?
OUTPUT: 2.82
